# Tested on: COLO 205 colon
# test details: NCI-60 one-dose screen, 48 h
# recorded conditions: 10 µM unless noted
About 83,000 compounds went through this panel and 20% of them were active in at least one assay; those are over-represented in the sample as a whole. The source made the active and inactive calls. How the source made its calls: active means growth percent below 10; inactive means the rest.
Tick one outcome: active, inactive

{"molecule": "COc1ccc(-c2nc(SCC(=O)Nc3nc4ccc(C)cc4s3)[nH]c(=O)c2C#N)cc1OC", "target under test": "COLO 205 colon", "class label": "inactive"}
{"molecule": "O=c1cc(CP(=O)(O)O)c2cc(O)c(-c3ccccc3)cc2o1", "target under test": "COLO 205 colon", "class label": "inactive"}
{"molecule": "COc1ccccc1S(=O)(=O)Nc1ccc2c3c(cc(CCC(=O)NCCCCNc4cccc5c4C(=O)N(C4CCC(=O)NC4=O)C5=O)cc13)C(=O)N2C (stereo not drawn)", "target under test": "COLO 205 colon", "class label": "active"}

Please indicate how the test categorized c1ccc(Cn2cc3c(c2-c2ccccc2)CCc2cnoc2-3)cc1 .
inactive

What about COc1ccc(CNc2ccc3nc(NC(=O)CN4CCCCCC4)sc3c2)cc1 ?
inactive

What about O=C1OCC2=C1C(c1ccccc1)c1cc3c(cc1N2CCO)OCCO3 (stereo not drawn) ?
active

What about COC12C=C/C(=C(/C(=O)OCc3csc(SC)n3)C(=O)CCCCCCCCC3(OC)C=C/C(=C(/C(=O)OCc4cnc(SC)s4)C(=O)CCCCCCCC1)O3)O2 (stereo not drawn) ?
inactive

What about Brc1ccc(Nc2nc(Nc3cnc4ccccc4c3)c3[nH]cnc3n2)cc1 ?
inactive

What about CN(C)/C(N)=N/N=C(\c1ccccc1)c1ccccn1 ?
inactive

What about CCOc1ccc(/C=C/C(=O)c2cccc(OCCCOc3cccc(C(=O)/C=C/c4ccc(OCC)cc4)c3)c2)cc1 ?
inactive

What about CSc1ccc2c3c(n(CCCn4ccnc4)c(=O)c2c1)-c1ccccc1C3=O ?
inactive

What about CC(=O)c1sc(-c2ccc(F)cc2)cc1O ?
inactive

What about COc1ccc(C(=O)C/C(=C\c2ccc(O)c(OC)c2)C(=O)NN)cc1 ?
inactive

Sourced from PubChem BioAssay (NCI)
